- Tested on: MON (INI1−/−) rhabdoid tumor cells
- method_description: MTS survival assay of rhabdoid tumor cells
- Format: cell-based
- condition_notes: MON rhabdoid cells, survival assay, values in text; read-out: IC50
Catalogue of pIC50 values
Convention used: pIC50 is expressed as -log10 of the molar concentration.

Ask | Give the value of pIC50 reported for the following: "CC1=C(/C=C/C(C)=C/C=C/C(C)=C/C(=O)Nc2ccc(O)c(F)c2)C(C)(C)CCC1"
Reply | 5.10

Ask | Give the value of pIC50 reported for the following: CCC1=C(C)/C(=C/c2ccc(C(=O)Nc3ccc(O)c(I)c3)cc2)CCC1(C)C [Compound 11d]
Reply | 5.52

Reference source for all entries: patent US8460635B2
